Please respond with reported EC50 (read off the curve) for every item in the list.
- measured-on: T1, human ICOS (human, UniProt Q9Y6W8 21-199)
- T1 construct: The cell that carries it is named under assay; also called huICOS; CD278
- T1 sequence: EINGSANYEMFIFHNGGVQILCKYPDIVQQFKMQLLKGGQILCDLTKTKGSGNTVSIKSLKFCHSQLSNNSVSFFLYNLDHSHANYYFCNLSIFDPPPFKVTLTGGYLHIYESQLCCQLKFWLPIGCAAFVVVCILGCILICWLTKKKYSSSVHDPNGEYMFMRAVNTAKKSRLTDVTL
- assay-notes: flow cytometry on CHO cells stably expressing human ICOS, PE-labelled secondary antibody, median fluorescence intensity (MFI)

Can you look up the measured EC50 (read off the curve) of Molecule 8 (rbIgG of 1167) (antibody, V domains shown, Rabbit IgG format, from transgenic rabbit; also called ICOS (1167); clone 1167) VH: EVRLLESGGGLVQPGGSLRLSCAASGFTFNTYAVHWVRQAPGKGLEWVSGIGGSGVRTYYADSVKGRLTISRDNSKNTLYLQMNSLRAEDTAIYFCAKDIYVADFTGYAFDIWGQGTMVTVSS VL: DIQMTQSPSSVSASVGDRVTITCRASQGINNFLAWYQQKPGKAPKLLIYDASSLQSGVPSRFAGSGSGTDFTLTISSLQPEDFATYYCQQYNFYPLTFGGGTMVEIKR for me?
~0.7 nM

Entry under review: Molecule 14 (muIgG of 009) (antibody, V domains shown, Mouse IgG purified from hybridoma; also called ICOS (009); clone 009) VH: EVRLDETGGGVVQPGRPMELSCVASGFTFSDYWMNWVRQSPEKGLEWVAQIRNKPYNYETYYSDSVKGRFTISRDDSKSRVYLQMNNLRAEDMGIYYCTWPRLRSSDWHFDVWGAGTTVTVSS VL: AIQMTQSPSSLSASLGGEVTITCKASQDINKNIAWYQHKPGRGPRLLIWYTSTLQTGIPSRFSGSGSGRDYSFTISNLEPEDFATYYCLQFDNLYTFGSGTKLEIR . Reported EC50 (read off the curve)?
~3 nM

Please look up its EC50 (read off the curve): Molecule 20 (rbIgG of 1143) (antibody, V domains shown, Rabbit IgG format; also called ICOS (1143); clone 1143) VH: QSLEESGGDLVKPGASLTLTCKASGFDFSSAYDMCWVRQAPGKGLEWIGCVYYGDGITYYATWAKGRFTISKTSSTTVPLQMTSLTAADTATYFCARGAFLGSSYYLSLWGQGTLVTVSS VL: AIDMTQTPASVEAAVGGTVTINCQASENIYNWLAWYQQKPGQPPKLLIYDASKLASGVPSRFSASGSGTQFTLTISAVECADAATYYCQQAYTYGNIDNAFGGGTEVVVSG
~0.3 nM
